Reference source for all entries: the supplement of paper PMC6522484

- Tested on: HCT116
- protocol: cell viability (CellTiter-Glo) relative to plate median (fraction of plate median); higher = more viable cells
- assaySetup: 5 µM; treatment time 24 h; reporter: TCF4/Wnt
metricName: cell viability
Output spec: single numeric token, no unit.

Please give the measured cell viability for this compound: Clc1ccccc1CN1CCc2sccc2C1
1.07

Cool, now CCCCCC1C(=O)CCC1CC(=O)OC (stereo not given)
1.03

And the next one, CC(C)CCC[C@@H](C)[C@H]1CC[C@H]2[C@@H]3CC[C@@H]4C[C@H](O)CC[C@]4(C)[C@H]3CC[C@]12C ?
1.01

Entry to check: OC[C@H]1O[C@@H](Oc2ccc(O)cc2)[C@H](O)[C@@H](O)[C@@H]1O
0.989

Another compound to check: C[C@]12CCC(=O)C=C1CC[C@@H]1[C@@H]2[C@@H](O)C[C@@]2(C)[C@H]1CC[C@]2(O)C(=O)COP(=O)(O)O
0.974

Same thing, different compound: C[C@@H]1CC(=O)c2c(ccc3c2C(=O)c2cccc(O)c2C3=O)C1 [Ochromycinone (Isoform B, compound ID 7489)]
1

Do the same for CCCc1cc(C(N)=S)ccn1 please
1.05

Item: COc1ccc(-c2cc(=O)c3c(OC)c(OC)c(OC)cc3o2)cc1OC
1.05

// repeat for Cc1coc2c1C(=O)C(=O)c1c-2ccc2c1CCCC2(C)C and report
0.999

// repeat for CC(=O)OCC(CCn1cnc2cnc(N)nc21)COC(C)=O and report
0.97

* * *

Answer each item with its documented cell viability.
- Test system: SW480
- protocol: cell viability (CellTiter-Glo) relative to plate median (fraction of plate median); higher = more viable cells
- assaySetup: 5 µM; treatment time 24 h; reporter: 7TFP

State the recorded cell viability for this entry: CC(=O)Oc1cccc(O)c1
1.07

Thanks! And NCCCC[C@H](N[C@@H](CCc1ccccc1)C(=O)O)C(=O)N1CCC[C@H]1C(=O)O ?
1

Similarly, Fc1ccc(C(c2ccc(F)cc2)N2CCN(C/C=C/c3ccccc3)CC2)cc1 ?
1.06

Continue with CCCCCCCCCCC[C@@H](C[C@@H]1OC(=O)[C@H]1CCCCCC)OC(=O)[C@H](CC(C)C)NC=O
0.972

Please do the same for CC[C@H](C)[C@@H]1NC(=O)[C@H](C)NC1=O as well.
1.07

* * *

- Test system: SW480
- protocol: cell viability (CellTiter-Glo) relative to plate median (fraction of plate median); higher = more viable cells
- assaySetup: 5 µM; treatment time 24 h; reporter: 7TFP
metricName: cell viability
Form field (numeric): enter value without unit.

// query cell viability value for entry CC(=O)Nc1nnc(S(N)(=O)=O)s1
0.989

Request: C[C@H](N)[C@H](O)c1cccc(O)c1
1.06

Subsequent entry: CN(C)CCC(c1ccc(Br)cc1)c1ccccn1 (stereo unspecified)
0.922

// repeat for CCCSc1ccc2[nH]c(NC(=O)OC)nc2c1 and report
0.986

// next record NS(=O)(=O)c1cc(C(=O)O)c(NCc2ccco2)cc1Cl
1.09

Now the same for C=CC(C1=CC(=O)C(OC)=CC1=O)c1ccc(OC)cc1 (stereo unspecified)
1.03

Also check CCOC(=O)c1c(C)cc(OC)cc1O
0.954

Continue with CC(C)CC1NC(=O)C2CCCN2C1=O (single isomer, unassigned; isomere) [Cyclo(leucylprolyl) (Isomere)]
1.02

Request: NC(=O)c1cccnc1
0.982

Another compound to check: CN(C)[C@@H]1C(O)=C(C(N)=O)C(=O)[C@@]2(O)C(O)=C3C(=O)c4c(O)ccc(Cl)c4[C@@](C)(O)[C@H]3C[C@@H]12
1.02

Cc1ccc(/C(=C\CN2CCCC2)c2ccccn2)cc1 ?
0.945

What do you get for CO[C@@]1(NC(=O)CSCC#N)C(=O)N2C(C(=O)O)=C(CSc3nnnn3C)CS[C@@H]21 ?
0.903

Let us now turn to C[C@]12C=CC(=O)C=C1CC[C@H]1[C@@H]3C[C@@H](O)[C@](O)(C(=O)CO)[C@@]3(C)C[C@H](O)[C@@]12F
0.982

Record: O=c1oc2c(O)c(O)cc3c(=O)oc4c(O)c(O)cc1c4c23
1.11

How about this compound: CCN[C@@H]1C[C@H](N)[C@@H](O[C@H]2OC(CN)=CC[C@H]2N)[C@H](O)[C@H]1O[C@H]1OC[C@](C)(O)[C@H](NC)[C@H]1O
0.978

Lookup Cc1cc(O)cc(C)c1Cl
0.918

Also check O=c1[nH]c(=O)n([C@H]2C[C@H](O)[C@@H](CO)O2)cc1C(F)(F)F
1.03

What about this compound? O=C(O)c1ccccc1C(=O)Nc1ccc(S(=O)(=O)Nc2nccs2)cc1
1

Can you check NC(N)=Nc1nc(CSCC/C(N)=N/S(N)(=O)=O)cs1 next?
0.916

Repeat for the following compound: C=CCc1ccc(OC(=O)c2ccccc2)c(OC)c1
1.02

Now this one: COC(=O)[C@H]1[C@H]2C[C@@H]3c4[nH]c5cc(OC)ccc5c4CCN3C[C@H]2C[C@@H](OC(=O)c2cc(OC)c(OC)c(OC)c2)[C@@H]1OC
0.972
